Assay: Modulation of HTT mRNA exon 49b splicing in human GM04724 cells incubated for 24 hrs by TaqMan qPCR analysis
Assay type: cell-based
Details: GM04724, 24 h
measured attribute: EC50

// below: answered compounds
In [3]: df
Out[3]:
                            smiles_notation  measured_attribute  measurement
0  C[C@@]12CCC[C@@](C)(N1)[C@H](F)[C@H](Oc1ccc(-c3ccc(-c4cn[nH]c4)cc3O)nn1)C2                EC50    ≤ 0.01 nM
1  Oc1cc(-c2cn[nH]c2)ccc1-c1ccc(O[C@@H]2C[C@@H]3CCC[C@@H](N3)[C@@H]2F)nn1                EC50    ≤ 0.01 nM
2  Oc1cc(-c2cn[nH]c2)c(F)cc1-c1ccc(O[C@@H]2C[C@@H]3CCC[C@@H](N3)[C@@H]2F)nn1                EC50    ≤ 0.01 nM

Batch request: EC50 per item, same order as input.
1. Cn1cc(-c2cc(O)c(-c3ccc(O[C@@H]4C[C@@H]5CCC[C@@H](N5)[C@@H]4F)nn3)cc2F)cn1
2. Oc1cc(-c2cn[nH]c2)ccc1-c1ccc(O[C@H]2C[C@H]3CCC[C@H](N3)[C@H]2F)nn1
3. C[C@]12CCC[C@](C)(N1)[C@@H](F)[C@@H](Oc1ccc(-c3ccc(-c4cn[nH]c4)cc3O)nn1)C2

*A*
≤ 0.01 nM
≤ 0.01 nM
≤ 0.01 nM

Batch request: EC50 per item, same order as input.
1. Oc1cc(-c2cn[nH]c2)c(F)cc1-c1ccc(O[C@H]2C[C@H]3CCC[C@H](N3)[C@H]2F)nn1
2. Cn1cc(-c2cc(O)c(-c3ccc(O[C@H]4C[C@H]5CCC[C@H](N5)[C@H]4F)nn3)cc2F)cn1

*A*
≤ 0.01 nM
≤ 0.01 nM

Data credit: ChEMBL document CHEMBL4706757
